Biological target: T1, human serum albumin (human, UniProt P02768 25-609)
T1 construct: mature; Bought protein; biotinylated in the Octet and HTRF assays; also called HSA; HuSA
Assay: Octet biolayer interferometry, biotinylated albumin on SA sensors, pH 7.4
Assay Readout: koff (s⁻¹)
Numbers only; they are read as s⁻¹.

Dear colleague, I am looking for the recorded koff of the following binder: HSA-31 (designed binder) MIPRGLSEAKPATPEIQEIVDKVKPQLEEKTNETYGKLEAVQYKTQVLAVWGPEYQHQSTNYYIKVRAGDNKYMHLKVFNGPNAGWPLVPEADRVLTGYQVDKNKDDELTGFHHHHHH
0.00317

Next: HSA-20 (designed binder) MIPRGLSEAKPATPEIQEIVDKVKPQLEEKTNETYGKLEAVQYKTQVLAGYWAAKWPGSTNYYIKVRAGDNKYMHLKVFNGPFPNTSYDLQADRVLTGYQVDKNKDDELTGFHHHHHH
0.00517

What do you get for HSA-36 (designed binder) MIPRGLSEAKPATPEIQEIVDKVKPQLEEKTNETYGKLEAVQYKTQVLAGHYARYWPGSTNYYIKVRAGDNKYMHLKVFNGPWAQKSKVHQADRVLTGYQVDKNKDDELTGFHHHHHH ?
0.00257

And for HSA-41 (designed binder, also called HSA-41 parent; HSA-41 AH parent) MIPRGLSEAKPATPEIQEIVDKVKPQLEEKTNETYGKLEAVQYKTQVLANFFQRRWPGSTNYYIKVRAGDNKYMHLKVFNGPWKFRNTDRGADRVLTGYQVDKNKDDELTGFHHHHHH ?
0.00198

// data source = patent US20230272011A1
